All figures here come from BindingDB's records for doi:10.1021/jm801503n.

Listed below: pIC50 values for each entry.
Biological target: Mitogen-activated protein kinase 8 (Homo sapiens)
Sequence (P45983 whole entry): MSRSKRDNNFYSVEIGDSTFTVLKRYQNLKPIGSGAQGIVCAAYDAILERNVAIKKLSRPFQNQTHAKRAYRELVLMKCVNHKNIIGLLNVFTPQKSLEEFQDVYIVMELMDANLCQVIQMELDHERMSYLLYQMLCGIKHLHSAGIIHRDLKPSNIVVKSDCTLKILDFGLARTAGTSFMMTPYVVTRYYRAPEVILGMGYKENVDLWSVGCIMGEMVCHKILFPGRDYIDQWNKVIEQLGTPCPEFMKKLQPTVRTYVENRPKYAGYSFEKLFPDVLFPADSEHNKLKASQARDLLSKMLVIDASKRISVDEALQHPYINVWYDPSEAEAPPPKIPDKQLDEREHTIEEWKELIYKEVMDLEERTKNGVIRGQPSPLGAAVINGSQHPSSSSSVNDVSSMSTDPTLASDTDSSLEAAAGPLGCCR
Assay: DELFIA Assay (Dissociation Enhanced Lanthanide Fluoro-Immuno Assay)
Settings: pH 7.8; 0 °C
pIC50: −log10 of the molar value.
reported_metric: pIC50

mol_smiles	val
CC(C)(C)c1ccc(-n2c(O)nnc2Sc2ncc([N+](=O)[O-])s2)cc1	7.02
O=c1[nH]nc(Sc2ncc([N+](=O)[O-])s2)n1-c1ccc(OC(F)(F)F)cc1	6.89
COc1cccc(-n2c(O)nnc2Sc2ncc([N+](=O)[O-])s2)c1	6.93
COc1cc(OC)cc(-n2c(Sc3ncc([N+](=O)[O-])s3)n[nH]c2=O)c1	6.98
COc1ccc(OC)c(-n2c(Sc3ncc([N+](=O)[O-])s3)n[nH]c2=O)c1	7.07
O=c1[nH]nc(Sc2ncc([N+](=O)[O-])s2)n1-c1ccc([N+](=O)[O-])cc1	7.07
O=c1[nH]nc(Sc2ncc([N+](=O)[O-])s2)n1-c1cccc(F)c1	6.20
O=[N+]([O-])c1cnc(Sc2nnc(O)n2-c2cccc3ccccc23)s1	7.32
Cn1cccc1-c1nnc(Sc2ncc([N+](=O)[O-])s2)n1-c1ccc(Cl)cc1Cl	7.08
